These measurements were taken from patent US20260258115A1.

Biological target: T1, RSV postfusion F (postF), subtype A (respiratory syncytial virus, subtype A, UniProt P03420 26-513)
T1 construct: also called F ΔFP; Postfusion subtype A
Test: BLI, IgG
Sorting guide: entries reporting Kd beneath 0.3 nM go in the Yes pile, the rest go in the No pile.

Take a look at these entries with their results.
{"BINDER": "ADI-21042 (antibody, V domains shown, also called Ab 290) VH: EVQLVESGPRLVKPSQTLSLTCNVSGVPVNTGGYYWSWIRRHPIKGLEWIGYIYYSGSTHYNPSLRGRATMSVDTSKNQFSLRLSSVTAADTAVYYCAKDTITVLRGVAKKGVFDPWGQGILVTVSS VL: DIQMTQSPSTLSASVGDRVIITCRASQSISSWLAWYQYKPGKAPNLLIYKATTLDSGVPSRFSGSGSGTEFTLTISSLQPDDFATYYCQQYDSYPTFGQGTKVEIK", "LABEL VALUE": "Yes"}
{"BINDER": "ADI-14592 (antibody, V domains shown) VH: QVQLVQSGAEVKKPGESLKISCKGSGYTFTNYWIGWVRQMPGKGLEWMGIIYPDDSDTRYSPSFQGQVTISVDKSINTAYLQWSSLRASDTAIYYCACSNWPHYFDSWGQGTLVTVSS VL: NFMLTQPHSVSESPGKTVTISCTRSSGNIAGNYVQWYQQRPGSAPTTVIYEDNQRPSGVPDRFSGSIDSSSNSASLTISGLKTEDEAVYYCQSYHPGNWVFGGGTKLTVL", "LABEL VALUE": "Yes"}
{"BINDER": "ADI-14421 (antibody, V domains shown, also called Ab 87) VH: QVQLVQSGAEVKKPGESLKISCKGSGYNSSINWIGYWIGWVRQMPGKGLEWMGIINPGDSDTRYSPSFQGQVTISVDKSISTAYLQWGSLKASDTAMYYCARRAYRSGWHFDLWGRGTLVTVSS VL: EIVMTQSPATLSVSPGERATLTCRASQSVSSNLAWYQQKPGQAPRLLIYGASTRATGIPARFSGSGSGTQFTLTISSLQSEDFAVYYCQHYNNWPPYTFGQGTKVEIK", "LABEL VALUE": "No"}
{"BINDER": "ADI-21011 (antibody, V domains shown) VH: QVQLQESGPGLVKPSETLSLSCTASGDSISDYYWSWIRQPPGKGLEWIGFVSDTWGTNYSPSLTSRVAISLDTSRSQVSLRLRSVTAADTAVYYCVRTHLYDRGGYYLYYFDYWGQGTLVTVSS VL: DIRMTQSPPSLSASVGDRVTITCRASQRIASYLNWYQQKPDTAPKLLIYAASNLQTGVPSRFSGSGSGTDFTLTISSLQPEDFATYYCQQSYSTPYTFGQGTKLEIK", "LABEL VALUE": "Yes"}
{"BINDER": "ADI-14573 (antibody, V domains shown) VH: QVQLVQSGAEVKKPGASVKVSCKASGYTFTTYGISWVRQAPGQGLEWMGWISTYKTYTNYAQKFQGRVTMTTDTSTSTAYMELRSLRSDDTAVYYCAKVAGGSGSYGDYWGQGTLVTVSS VL: QPVLTQPPSVSVAPGKTARITCGGNNIGSKSVHWYLQKPGQAPVLVIYYDSDRPSGIPERFSGSNSGNTATLTISRVEAGDEADFFCQVWDSSSDHWVFGGGTKVTVL", "LABEL VALUE": "No"}
{"BINDER": "ADI-20972 (antibody, V domains shown) VH: QVQLQQWGAGLLRPSETLSLTCAVSGGSFSGHYWSWIRQPPGKGLEWIGGINHSGNTNYSPSLRSRVTMSVDTSRNQFSLMLRSVTAADTAVYFCARNVPNLYGDYPRWFDPWGQGTLVTVSS VL: QSVLTQPASVSGSPGQSITISCTGTSSDVGGFNYVSWYQHHPGKAPKLMIYDVNNRPSGASNRFSGSKSGNTASLTISGLQAEDEADYYCSSYRSSDTLYVFGTGTKVTVL", "LABEL VALUE": "No"}
{"BINDER": "ADI-21012 (antibody, V domains shown) VH: QVQLVQSGPAVVKPTQTLTLTCSFSGFSLSTSRMSVSWIRQPPGKALEWLARIDWDGDKYYSTSLKSRLTISKDTSKNQVVLTMTNMDPVDTATYYCARGSYYVSSGYYLNYFDYWGQGTLVTVSS VL: DIRMTQSPSSLSASVGDRVTITCRTSQTIASYLNWYQQKPGKAPNLLIYAASILQTGVPSRFSGSGSGTDFTLTISSLQPEDFATYYCQQSYGTPQTFGQGTKVEIK", "LABEL VALUE": "Yes"}
{"BINDER": "ADI-14422 (antibody, V domains shown, also called Ab 88) VH: QVQLVQSGAEVKKPGSSVKVSCKASGGTFSSYTINWVRQAPGQGLEWMGRIIPILGIANYAQKFQGRVTITADKSTSTAYMELSSLRSEDTAVYYCARRHQDTYGMDVWGQGTTVTVSS VL: QSVLTQPPSVSGAPGQRVTISCTGSSSNIGAGYDVHWYQQLPGTAPKLLIYGNSNRPSGVPDRFSGSKSGTSASLAITGLQAEDEADYYCQSYDSSLSGSVFGGGTKVTVL", "LABEL VALUE": "No"}
{"BINDER": "ADI-14416 (antibody, V domains shown, also called Ab 82) VH: QVQLVQSGAEVKKPGESLKISCKGSGDTFSRNWIGWVRQMPGKGLEWMGIIWPGDSDTRYRQFFQGQQGQVIISVDKSISTAYLQWSSLKASDTATYYCATSPYGLGSYYEHWGQGTLVTVSS VL: NFMLTQPHSLSDSPGKTVVISCTRSSGSIASNYVQWYQQRPGSAPTTVIYEDNQRPSGVPDRFSGSIDSSSNSASLTISGLKTEDEADYYCQSYDSSNPYVFGTGTKVTVL", "LABEL VALUE": "Yes"}

Field: next binder
Input ADI-20990 (antibody, V domains shown) VH: EVQLVESGGGVVQPGRSLRLSCSASGFPFHSYAMHWVRQAPGKGLEWVAGIWYEGSSESYADSVKGRLTISRDNSRNTLYLQMNSLRVEDTAVYYCARRGSFSGFDSWGQGSLVTVSS VL: DIVMTQSPLSLPVTPGEPASISCRSSQSLLHSNGYNYLDWYLQKPGQSPQLLISLGSNRASGVPDRFSGSVAGTDFTLKISRVEAEDVGVYYCMQSSQTPYTFGQGTKVDIK ; condition: Kd strictly below 0.3 nM. Does it hold?
Yes
